Target: T1, human CX3CR1 (human, UniProt P49238 1-355)
T1 construct: overexpressed on CHO, BA/F3 or HEK293T cells; also called huCX3CR1; hCX3CR1
T1 sequence: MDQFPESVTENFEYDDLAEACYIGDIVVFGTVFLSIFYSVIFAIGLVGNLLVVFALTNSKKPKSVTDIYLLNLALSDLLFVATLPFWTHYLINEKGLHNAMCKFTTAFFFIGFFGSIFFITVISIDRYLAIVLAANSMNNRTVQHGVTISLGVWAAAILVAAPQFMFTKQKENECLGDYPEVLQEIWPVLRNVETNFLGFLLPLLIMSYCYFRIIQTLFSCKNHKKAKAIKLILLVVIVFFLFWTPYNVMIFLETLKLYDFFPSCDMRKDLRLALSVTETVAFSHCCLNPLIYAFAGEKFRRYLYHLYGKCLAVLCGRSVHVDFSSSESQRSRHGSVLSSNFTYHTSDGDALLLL
Assay: A647-fractalkine competition FACS, HEK293T human CX3CR1
measure-name: % block (%)
The figure you give is taken to be in %; do not add the unit.

Past entries and their recorded results:
CX3CR1BIIPMP54H1 (VHH, also called 54H01; not shown: C-terminal c-myc and His6 tags) VHH: EVQLVESGGGSVQAGESLRLSCAASGTIFSSNAMAWYRQAPGKQRDLVAGINSVDITKYADSVKGRFTVSRDNAKNTVYLQMNSLKPEDTAVYYCTSDPRRGWNTRYWGQGTQVTVSS = 64
CX3CR1BIIPMP61B2 (VHH, also called 61B02; not shown: C-terminal c-myc and His6 tags) VHH: EVQLVESRGGSVQAGASLRLSCAASGSIFSSNAMAWYRQAPGKQRDLVAVINTVGITKYADSVKGRFTISRDNAKNTVYLQMNSLKPEDTAVYYCTSDARRGWDTRYWGQGTQVTVSS = 94
CX3CR1BIIPMP54A12 (VHH, also called CX3CR1BII54A12; not shown: C-terminal c-myc and His6 tags) VHH: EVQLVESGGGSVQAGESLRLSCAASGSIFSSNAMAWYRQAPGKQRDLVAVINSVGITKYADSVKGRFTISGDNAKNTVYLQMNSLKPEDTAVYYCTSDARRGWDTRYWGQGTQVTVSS = 96

Proceed to the following item.
Exercise: Param item = CX3CR1BIIPMP66G01 (VHH, also called CX3CR1BII66G01; not shown: C-terminal c-myc and His6 tags) VHH: EMQLVESGGGSVQAGESLRLSCAASGSIFSSNAMAWYRQAPGKQRDLVALINSVGITKYADSVKGRFTISRDNAKNTVYLQMNSLKPEDTAVYYCTSDGRRGWDTRYWGQGTQVTVSS ; retrieve measured % block.
Solution: 99
